Cited source: the supplement of paper PMC9170038

System: MS2 coat protein
Test: apparent KD of MS2 coat protein; designed switch direction (-1 OFF switch, 1 ON switch): 1; higher = weaker reporter binding
Conditions: input ligand: FMN 200 uM
Reported apparent KD of MS2 coat protein values are given for each entry in this list.
Field: value (include unit after the number)

Consider the reported apparent KD of MS2 coat protein for these sequences:
AGGCUCAGACGAGGAUAUAUGUCUCGAGCUUCGGCUCGAGACAUGAGGAUCACCCAUGUAAUAACAUAGAAGGUGUCUGAGCCA [SSNG2/1-C1] (Eterna round: R96, puzzle: Same State NG 2) :: 0.0491 µM
GAGGGCGAAAGCAACAUGAGGAUCACCCAUGUCCUCGGAGGGCAGGAUAUCCGGCGGUAGCCGAAGGAGAAGGGUCGGUAAGAA [AK SSNG3-V2-33.1] (Eterna round: R96, puzzle: Same State NG 3) :: 0.159 µM
AUUCGUUUGAUAGGAUAUCACUUUACAUGAGGAUCACCCAUGUUCACCACGCUGGUCUCUUAUACUGAGAAGGAUCUUGAUGAC [JR_SSNG2_Sub009] (Eterna round: R96, puzzle: Same State NG 2) :: 0.0229 µM
AAAAGAAACACAGGAUAUACCGCACUUAACGCGGUAGAAGGGUGGGACAUGAGGAUCACCCAUGUGGUCUGGGCGCCAGACCGC [Esratean] (Eterna round: R96, puzzle: Same State NG 1) :: 0.0291 µM

Next:
Recorded apparent KD of MS2 coat protein for AUAGUGUACGCAGGAUAUCGAUGAGGAACAUGAGGAUCACCCAUGUUGUGAGGAUCACCCAUGUAUGAGAAGGGCGACCCAUGU [Same State NG2 S1] (Eterna round: R96, puzzle: Same State NG 2) , please?
0.148 µM
